Target: HCN1 (Homo sapiens (Human), UniProt O60741)
Sequence (O60741 whole entry, species assumed): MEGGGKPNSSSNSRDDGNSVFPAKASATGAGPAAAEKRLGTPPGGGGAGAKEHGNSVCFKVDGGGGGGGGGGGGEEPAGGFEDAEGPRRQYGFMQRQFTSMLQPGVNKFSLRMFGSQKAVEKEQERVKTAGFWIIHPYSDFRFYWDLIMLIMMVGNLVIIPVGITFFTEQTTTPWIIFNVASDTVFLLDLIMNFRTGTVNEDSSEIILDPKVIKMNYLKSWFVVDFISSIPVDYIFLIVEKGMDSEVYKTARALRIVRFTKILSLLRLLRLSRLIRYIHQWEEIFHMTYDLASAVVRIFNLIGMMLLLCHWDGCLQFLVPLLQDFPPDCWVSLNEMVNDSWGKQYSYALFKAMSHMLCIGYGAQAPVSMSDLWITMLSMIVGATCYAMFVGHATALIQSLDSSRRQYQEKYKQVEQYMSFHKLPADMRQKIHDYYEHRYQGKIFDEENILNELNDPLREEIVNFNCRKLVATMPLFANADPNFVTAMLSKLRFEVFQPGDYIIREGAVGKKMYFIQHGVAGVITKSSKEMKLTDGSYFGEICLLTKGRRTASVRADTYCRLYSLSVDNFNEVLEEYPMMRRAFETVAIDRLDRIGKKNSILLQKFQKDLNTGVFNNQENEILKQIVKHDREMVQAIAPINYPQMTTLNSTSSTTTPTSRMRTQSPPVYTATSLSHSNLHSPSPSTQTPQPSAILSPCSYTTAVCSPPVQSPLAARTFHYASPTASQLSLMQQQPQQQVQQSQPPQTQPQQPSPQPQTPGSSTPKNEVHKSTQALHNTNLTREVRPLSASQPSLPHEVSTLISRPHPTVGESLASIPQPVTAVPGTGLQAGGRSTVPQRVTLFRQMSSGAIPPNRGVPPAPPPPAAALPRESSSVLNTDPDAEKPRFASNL
Test: HCN1 current assay using the Sophion Qube
Type: cell-based
Settings: Sophion Qube protocol; read-out: SQ HCN1 IC50
pIC50: −log10 of the molar value. Counter-ions that a name gives are not always drawn.

[
  {
    "compound": "CS(=O)(=O)c1ccc(F)c(C[C@H](N)c2ccccc2-c2noc3cc(Cl)ccc23)n1 [Example 13, hydrochloride]",
    "pIC50": 5.49
  },
  {
    "compound": "Cc1ccc(S(C)(=O)=O)nc1C[C@H](N)c1ccccc1-c1noc2cc(F)ccc12 [Example 24, hydrochloride]",
    "pIC50": 5.38
  },
  {
    "compound": "N[C@@H](Cc1nc(Br)ccc1F)c1ccccc1-c1noc2cc(Br)ccc12",
    "pIC50": 5.52
  },
  {
    "compound": "CS(=O)(=O)c1ccc(F)c(C[C@H](N)c2ccccc2-c2noc3cc(Br)ccc23)n1 [Example 21, hydrochloride]",
    "pIC50": 5.28
  },
  {
    "compound": "Cc1ccc2c(-c3ccccc3[C@@H](N)Cc3nc(S(C)(=O)=O)ccc3C)noc2c1 [Example 19, hydrochloride]",
    "pIC50": 5.54
  }
]

----------
Where a name gives a salt, the structure may show the parent alone.
Here we list molecules with their recorded IC50 when tested on UniProtKB Q14524.
Sequence (Q14524 whole entry): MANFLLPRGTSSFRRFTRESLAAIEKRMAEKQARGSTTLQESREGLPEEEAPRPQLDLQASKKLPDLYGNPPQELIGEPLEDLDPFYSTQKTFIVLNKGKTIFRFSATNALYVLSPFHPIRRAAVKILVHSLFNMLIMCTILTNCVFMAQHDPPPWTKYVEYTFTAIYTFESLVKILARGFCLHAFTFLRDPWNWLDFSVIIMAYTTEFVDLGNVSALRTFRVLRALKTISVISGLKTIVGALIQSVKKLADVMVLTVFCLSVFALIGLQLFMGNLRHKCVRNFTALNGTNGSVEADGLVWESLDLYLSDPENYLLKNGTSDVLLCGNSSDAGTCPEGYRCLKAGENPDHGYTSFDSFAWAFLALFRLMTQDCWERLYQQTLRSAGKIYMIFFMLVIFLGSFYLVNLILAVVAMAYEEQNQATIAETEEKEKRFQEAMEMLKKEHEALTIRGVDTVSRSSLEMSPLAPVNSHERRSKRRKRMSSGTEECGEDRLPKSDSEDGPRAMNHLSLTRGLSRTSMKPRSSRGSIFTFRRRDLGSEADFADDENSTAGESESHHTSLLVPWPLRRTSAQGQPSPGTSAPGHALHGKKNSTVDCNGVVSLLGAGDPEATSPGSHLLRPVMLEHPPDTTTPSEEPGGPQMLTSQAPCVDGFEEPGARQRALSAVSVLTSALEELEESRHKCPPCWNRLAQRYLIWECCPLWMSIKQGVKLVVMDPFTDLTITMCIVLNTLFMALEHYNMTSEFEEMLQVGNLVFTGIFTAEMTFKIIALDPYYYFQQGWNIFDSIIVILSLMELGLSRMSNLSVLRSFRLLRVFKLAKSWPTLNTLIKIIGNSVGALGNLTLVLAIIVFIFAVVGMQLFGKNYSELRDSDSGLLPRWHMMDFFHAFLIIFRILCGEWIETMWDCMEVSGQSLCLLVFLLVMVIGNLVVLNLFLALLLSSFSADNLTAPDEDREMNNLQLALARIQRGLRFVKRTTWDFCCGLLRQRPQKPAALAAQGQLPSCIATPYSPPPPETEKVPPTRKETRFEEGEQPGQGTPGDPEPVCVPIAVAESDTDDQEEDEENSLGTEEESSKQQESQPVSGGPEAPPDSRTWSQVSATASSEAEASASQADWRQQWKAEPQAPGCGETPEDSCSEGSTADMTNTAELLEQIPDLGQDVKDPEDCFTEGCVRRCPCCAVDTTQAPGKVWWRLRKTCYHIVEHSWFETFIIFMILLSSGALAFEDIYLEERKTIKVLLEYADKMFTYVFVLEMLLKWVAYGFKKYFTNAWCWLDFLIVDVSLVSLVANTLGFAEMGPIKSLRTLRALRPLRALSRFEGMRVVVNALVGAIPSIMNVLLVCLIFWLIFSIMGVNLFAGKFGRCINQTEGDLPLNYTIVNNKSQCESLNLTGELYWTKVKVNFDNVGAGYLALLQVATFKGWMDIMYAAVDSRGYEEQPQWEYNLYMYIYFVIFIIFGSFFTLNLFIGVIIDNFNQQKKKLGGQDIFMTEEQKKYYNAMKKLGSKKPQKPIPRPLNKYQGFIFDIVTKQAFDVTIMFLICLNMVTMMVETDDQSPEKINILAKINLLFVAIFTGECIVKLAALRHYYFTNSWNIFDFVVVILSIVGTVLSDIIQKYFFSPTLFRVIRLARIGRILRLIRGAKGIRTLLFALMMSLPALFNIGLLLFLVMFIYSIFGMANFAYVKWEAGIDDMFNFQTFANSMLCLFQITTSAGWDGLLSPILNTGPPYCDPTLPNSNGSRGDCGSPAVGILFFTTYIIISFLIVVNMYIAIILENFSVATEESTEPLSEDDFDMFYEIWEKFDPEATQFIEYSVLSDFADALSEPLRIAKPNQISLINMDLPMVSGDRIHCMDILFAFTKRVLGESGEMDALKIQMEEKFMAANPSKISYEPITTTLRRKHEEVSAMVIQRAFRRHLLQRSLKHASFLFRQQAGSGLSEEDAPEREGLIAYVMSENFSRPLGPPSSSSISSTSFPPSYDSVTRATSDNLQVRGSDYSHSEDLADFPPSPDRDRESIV

[
  {
    "molecule": "CN(C)C(=O)CCc1cccc(C[C@H](N)c2ccccc2-c2noc3ccccc23)n1 [Example 109, hydrochloride]",
    "IC50 / µM": 3.2
  },
  {
    "molecule": "CN(C)C(=O)c1ccc(F)c(C[C@H](N)c2ccccc2-c2noc3ccccc23)n1 [Example 74, hydrochloride]",
    "IC50 / µM": 11.4
  },
  {
    "molecule": "COCCNc1cccc(C[C@H](N)c2ccccc2-c2noc3ccccc23)n1 [Example 52, hydrochloride]",
    "IC50 / µM": 1.6
  },
  {
    "molecule": "N[C@@H](Cc1cccc(C(F)(F)F)n1)c1ccccc1-c1noc2ccccc12 [Example 62, hydrochloride]",
    "IC50 / µM": 3.8
  }
]

----------
Below: a set of entries, each annotated with reported IC50.
Molecular target: HCN4 (Homo sapiens (Human))
Sequence (Q9Y3Q4 whole entry, species assumed): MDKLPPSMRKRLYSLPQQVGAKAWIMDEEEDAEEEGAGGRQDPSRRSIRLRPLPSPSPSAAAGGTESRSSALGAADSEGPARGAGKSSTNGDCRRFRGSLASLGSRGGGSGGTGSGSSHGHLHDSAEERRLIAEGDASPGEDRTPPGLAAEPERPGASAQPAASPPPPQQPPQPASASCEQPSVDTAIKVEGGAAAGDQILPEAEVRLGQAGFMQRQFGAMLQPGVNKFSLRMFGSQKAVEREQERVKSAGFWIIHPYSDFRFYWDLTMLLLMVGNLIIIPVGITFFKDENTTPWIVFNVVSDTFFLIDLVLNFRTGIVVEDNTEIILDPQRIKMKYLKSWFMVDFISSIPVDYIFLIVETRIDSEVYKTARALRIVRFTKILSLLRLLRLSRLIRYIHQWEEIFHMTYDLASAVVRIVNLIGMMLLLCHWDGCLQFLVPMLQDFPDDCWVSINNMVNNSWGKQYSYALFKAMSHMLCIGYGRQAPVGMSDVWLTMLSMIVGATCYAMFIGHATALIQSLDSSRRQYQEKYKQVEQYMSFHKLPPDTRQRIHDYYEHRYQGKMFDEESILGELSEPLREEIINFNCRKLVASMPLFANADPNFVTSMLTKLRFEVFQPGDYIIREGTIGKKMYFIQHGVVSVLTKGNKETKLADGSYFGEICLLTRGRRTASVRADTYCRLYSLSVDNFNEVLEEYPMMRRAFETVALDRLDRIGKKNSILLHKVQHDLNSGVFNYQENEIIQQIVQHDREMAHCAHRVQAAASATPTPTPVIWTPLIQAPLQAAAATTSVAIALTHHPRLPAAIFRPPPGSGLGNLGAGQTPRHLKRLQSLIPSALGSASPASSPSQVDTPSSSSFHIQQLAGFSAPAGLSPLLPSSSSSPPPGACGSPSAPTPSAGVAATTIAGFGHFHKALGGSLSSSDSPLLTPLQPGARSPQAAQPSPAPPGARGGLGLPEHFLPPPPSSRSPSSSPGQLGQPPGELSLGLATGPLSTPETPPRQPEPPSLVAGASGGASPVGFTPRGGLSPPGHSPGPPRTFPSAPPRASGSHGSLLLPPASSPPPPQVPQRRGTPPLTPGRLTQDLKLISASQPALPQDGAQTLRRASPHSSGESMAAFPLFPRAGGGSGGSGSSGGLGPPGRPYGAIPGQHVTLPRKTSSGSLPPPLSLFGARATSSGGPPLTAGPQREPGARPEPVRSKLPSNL
Experiment: HCN4 current assay using PatchXpress 7000A
Type: cell-based
Conditions: PatchXpress protocol; read-out: PX HCN4 IC50
Structures can show the parent of a compound that is named as a salt.
experimental endpoint: IC50

[
  {
    "compound": "CCc1cccc(C[C@H](N)c2ccccc2-c2noc3ccccc23)n1 [Example 101, hydrochloride]",
    "target of assay": "HCN4 (Homo sapiens (Human))",
    "experimental endpoint": "IC50",
    "reported result": "13.1 µM"
  },
  {
    "compound": "Cc1cccc(C[C@H](N)c2ccccc2-c2noc3ccccc23)n1 [Example 114, hydrochloride]",
    "target of assay": "HCN4 (Homo sapiens (Human))",
    "experimental endpoint": "IC50",
    "reported result": "9 µM"
  },
  {
    "compound": "N#Cc1cccc(C[C@H](N)c2ccccc2-c2noc3ccccc23)n1 [Example 116, hydrochloride]",
    "target of assay": "HCN4 (Homo sapiens (Human))",
    "experimental endpoint": "IC50",
    "reported result": "13.5 µM"
  },
  {
    "compound": "N[C@@H](Cc1ccc(F)cn1)c1ccccc1-c1noc2ccccc12 [Example 69, hydrochloride]",
    "target of assay": "HCN4 (Homo sapiens (Human))",
    "experimental endpoint": "IC50",
    "reported result": "8.2 µM"
  },
  {
    "compound": "N[C@@H](Cc1cccc(C(=O)N2CCOCC2)n1)c1ccccc1-c1noc2ccccc12 [Example 106, hydrochloride]",
    "target of assay": "HCN4 (Homo sapiens (Human))",
    "experimental endpoint": "IC50",
    "reported result": "> 30 µM"
  },
  {
    "compound": "N#Cc1ccc(C[C@H](N)c2ccccc2-c2noc3cc(Br)ccc23)nc1",
    "target of assay": "HCN4 (Homo sapiens (Human))",
    "experimental endpoint": "IC50",
    "reported result": "> 30 µM"
  },
  {
    "compound": "NC(=O)c1cccc(C[C@H](N)c2ccccc2-c2noc3ccccc23)n1 [Example 104, hydrochloride]",
    "target of assay": "HCN4 (Homo sapiens (Human))",
    "experimental endpoint": "IC50",
    "reported result": "10.4 µM"
  },
  {
    "compound": "N[C@@H](Cc1ccccn1)c1c(Br)cccc1-c1noc2ccccc12 [Example 87, hydrochloride]",
    "target of assay": "HCN4 (Homo sapiens (Human))",
    "experimental endpoint": "IC50",
    "reported result": "18.8 µM"
  },
  {
    "compound": "N[C@@H](Cc1cccc(N2CC[C@@H](O)C2)n1)c1ccccc1-c1noc2ccccc12 [Example 50, hydrochloride]",
    "target of assay": "HCN4 (Homo sapiens (Human))",
    "experimental endpoint": "IC50",
    "reported result": "4.9 µM"
  },
  {
    "compound": "Cc1cccc(C[C@H](N)c2ccccc2-c2nn(C)c3ccccc23)n1 [Example 61, hydrochloride]",
    "target of assay": "HCN4 (Homo sapiens (Human))",
    "experimental endpoint": "IC50",
    "reported result": "> 30 µM"
  },
  {
    "compound": "COCCNC(=O)c1cccc(C[C@H](N)c2ccccc2-c2noc3ccccc23)n1 [Example 108, hydrochloride]",
    "target of assay": "HCN4 (Homo sapiens (Human))",
    "experimental endpoint": "IC50",
    "reported result": "5.1 µM"
  },
  {
    "compound": "N#Cc1ccc(C[C@H](N)c2ccccc2-c2noc3ccccc23)nc1 [Example 93, hydrochloride]",
    "target of assay": "HCN4 (Homo sapiens (Human))",
    "experimental endpoint": "IC50",
    "reported result": "> 30 µM"
  },
  {
    "compound": "N[C@@H](Cc1cccc(-c2ncco2)n1)c1ccccc1-c1noc2ccccc12 [Example 118, hydrochloride]",
    "target of assay": "HCN4 (Homo sapiens (Human))",
    "experimental endpoint": "IC50",
    "reported result": "5.2 µM"
  },
  {
    "compound": "Cn1nc(-c2ccccc2[C@@H](N)Cc2ccccn2)c2ccccc21 [Example 60, hydrochloride]",
    "target of assay": "HCN4 (Homo sapiens (Human))",
    "experimental endpoint": "IC50",
    "reported result": "> 30 µM"
  },
  {
    "compound": "CC(C)n1nc(-c2ccccc2[C@@H](N)Cc2ccccn2)c2ccccc21 [Example 65, hydrochloride]",
    "target of assay": "HCN4 (Homo sapiens (Human))",
    "experimental endpoint": "IC50",
    "reported result": "5.1 µM"
  },
  {
    "compound": "Cc1cccc(C[C@H](N)c2ccccc2-c2noc3cc(C#N)ccc23)n1",
    "target of assay": "HCN4 (Homo sapiens (Human))",
    "experimental endpoint": "IC50",
    "reported result": "> 30 µM"
  }
]

Data provenance is patent US20240190854A1.
